Provenance of the data: patent US12122802B2

- measurement.notes: water content in crystals from weight loss on drying under reduced pressure at 70° C. for 18 hours
- Type: physicochemical
- test.context: hydrous D-allose crystals (purity 99.9%, water content 17.7%) dried under the named drying conditions
measurement.name: Water content (%) after drying

| compound | Water content (%) after drying |
| --- | --- |
| O=C[C@H](O)[C@H](O)[C@H](O)[C@H](O)CO [Conductive heat transfer drying at 70° C.] [D-allose] | 0.105 |
| O=C[C@H](O)[C@H](O)[C@H](O)[C@H](O)CO [Conductive heat transfer drying at 40° C.] [D-allose] | 0.13 |
| O=C[C@H](O)[C@H](O)[C@H](O)[C@H](O)CO [Conductive heat transfer drying at 60° C.] [D-allose] | 0.18 |
| O=C[C@H](O)[C@H](O)[C@H](O)[C@H](O)CO [Convection heat transfer drying at 50° C., Air supply: 4700 ] [D-allose] | 0.13 |
| O=C[C@H](O)[C@H](O)[C@H](O)[C@H](O)CO [Convection heat transfer drying at 40° C., Air supply: 3900 ] [D-allose] | 0.14 |

====

- measurement.notes: repose angle measured by powder tester PT-E (fluidity of anhydrous D-allose crystals)
- Format: physicochemical
- test.context: drying tests of Table 6; evaluated from repose angle according to Table 4

| compound | Degree of fluidity |
| --- | --- |
| O=C[C@H](O)[C@H](O)[C@H](O)[C@H](O)CO [Conductive heat transfer drying at 40° C.] [D-allose] | Passable (41~45) |
| O=C[C@H](O)[C@H](O)[C@H](O)[C@H](O)CO [Conductive heat transfer drying at 50° C.] [D-allose] | Passable (41~45) |
| O=C[C@H](O)[C@H](O)[C@H](O)[C@H](O)CO [Conductive heat transfer drying at 60° C.] [D-allose] | Passable (41~45) |

====

- measurement.notes: water content in crystals from weight loss on drying under reduced pressure at 70° C. for 18 hours
- Type: physicochemical
- test.context: hydrous D-allose crystals (purity 99.9%, water content 17.7%) dried under the named drying conditions
measurement.name: Water content (%) after drying

| compound | Water content (%) after drying |
| --- | --- |
| O=C[C@H](O)[C@H](O)[C@H](O)[C@H](O)CO [Conductive heat transfer drying at 50° C.] [D-allose] | 0.099 |

A. O=C[C@H](O)[C@H](O)[C@H](O)[C@H](O)CO [Convection heat transfer drying at 40° C., Air supply: 6000 ] [D-allose]
B. O=C[C@H](O)[C@H](O)[C@H](O)[C@H](O)CO [Ultra-low humidity drying (20 to 24° C.), D-allose]
Inquiry: Name the one with the greater Water content (%) after drying value, either A or B as given. State your choice using its label.
Reply text: A
(A: 0.13%, B: 0.052%)

====

- measurement.notes: repose angle measured by powder tester PT-E (fluidity of anhydrous D-allose crystals)
- Type: physicochemical
- test.context: drying tests of Table 6; evaluated from repose angle according to Table 4
measurement.name: Degree of fluidity

| compound | val |
| --- | --- |
| O=C[C@H](O)[C@H](O)[C@H](O)[C@H](O)CO [Convection heat transfer drying at 50° C., Air supply: 4700 ] [D-allose] | Passable (41~45) |
| O=C[C@H](O)[C@H](O)[C@H](O)[C@H](O)CO [Ultra-low humidity drying (20 to 24° C.), D-allose] | Passable (41~45) |
| O=C[C@H](O)[C@H](O)[C@H](O)[C@H](O)CO [Conductive heat transfer drying at 70° C.] [D-allose] | Passable (41~45) |
| O=C[C@H](O)[C@H](O)[C@H](O)[C@H](O)CO [Convection heat transfer drying at 40° C., Air supply: 3900 ] [D-allose] | Passable (41~45) |

Inquiry: Which Degree of fluidity value belongs to O=C[C@H](O)[C@H](O)[C@H](O)[C@H](O)CO [Convection heat transfer drying at 40° C., Air supply: 6000 ] [D-allose] ?
Reply text: Passable (41~45)
